Values from patent US8227636B2

Test system: murine erythroleukemia cell line SC9
Assay Protocol: MTS assay (Cell Titer 96 Aqueous One Solution Cell Proliferation Assay)
Type: cell-based
Measurement Parameters: Mus musculus; SC9 cells, 48 hours incubation; unit inferred
Experimental: The novel compounds of the present invention were tested for their ability to inhibit proliferation of the murine erythroleukemia cell line SC9. The MTS assay, also referred to as the Cell Titer 96 Aqueous One Solution Cell Proliferation Assay, is a colorimetric method for determining the number of viable cells in proliferation, cytotoxicity, or chemosensitivity assays. […] Murine erythroleukemia cells (SC-9) were incubated with vehicle or increasing concentrations of compound for 48 hours.
Measured Property: IC50 (nM)
Give your result in nM as a bare value.

Sample answers from the record:
Compound Structure String | IC50 / nM
O=C(CCCCCCC(=O)Nc1ccccc1)NOC(=O)CCCc1ccccc1 | 1540
O=C(CCCCCCC(=O)Nc1ccccc1)NOC(=O)c1ccc2ccccc2c1 | 1790
Cc1ccc(C(=O)ONC(=O)CCCCCCC(=O)Nc2ccccc2)cc1 | 862
O=C(CCCCCCC(=O)Nc1ccccc1)NOC(=O)/C=C/c1ccccc1 | 648
CCCCc1ccc(C(=O)ONC(=O)CCCCCCC(=O)Nc2ccccc2)cc1 | 1760

// fetch murine erythroleukemia cell line SC9 IC50 for O=C(CCCCCCC(=O)Nc1ccccc1)NOC(=O)c1cccc2ccccc12 5220

// fetch murine erythroleukemia cell line SC9 IC50 for O=C(CCCCCCC(=O)Nc1ccccc1)NOC(=O)CCCCCCC(=O)Nc1ccccc1 785

// fetch murine erythroleukemia cell line SC9 IC50 for O=C(CCCCCCC(=O)Nc1ccccc1)NOC(=O)c1ccc(-c2ccccc2)cc1 1380

// fetch murine erythroleukemia cell line SC9 IC50 for CC(=O)ONC(=O)CCCCCCC(=O)Nc1ccccc1 246

// fetch murine erythroleukemia cell line SC9 IC50 for O=C(CCCCCCC(=O)Nc1ccccc1)NOC(=O)c1cccnc1 252
